# Test system: RXF 393 renal
# ASSAY_NOTES: NCI tumour cell line growth inhibition, 48 h
READOUT_KIND: log10 of TGI (log10 of the value in µM)
The figures below represent log10 of TGI, where TGI is stated in µM.

Please look at the items below and tell me log10 of TGI for each one, in order.
1. CC1=C([Se]CC(OC(=O)CC[Se]c2ccccc2)C(=O)NCCCCCC(=O)OCc2ccccc2)C(=O)c2ccccc2C1=O (stereo unspecified)
2. COC(C[C@H]1CCCC[C@]1(O)/C(=C\CO[Si](C(C)C)(C(C)C)C(C)C)Sc1ccccc1)OC
3. CCC(=O)Nc1ccc(N2C(=O)/C(=C/c3ccc(O)c(OC)c3)N=C2c2ccccc2)cc1
4. COc1ccc(/C=N/N=C(\N)NO)cc1OC
5. O=C1/C(=C/c2cccs2)N=C(c2ccccc2)N1c1nc2ccccc2s1
6. CN1CCCC(OC(=O)c2cc3cc(CCl)ccc3oc2=O)C1 (stereo unspecified)
7. O=C(O)c1cc2ccccc2c(O)c1O

Given back:
1. 0.75
2. 1.74
3. 1.68
4. 1.83
5. 1.96
6. 1.74
7. 1.50

// input: 2 compounds below; output: log10 of TGI for each
1. CCOC(=O)c1nc2ccccc2nc1Nc1ccc(F)cc1
2. O=c1cc(C(F)(F)F)c2cc3c(cc2o1)NCCC3

Given back:
1. 1.43
2. -0.01

###

What TGI was measured for each of the following?
# Test system: MOLT-4 leukemia
# ASSAY_NOTES: NCI tumour cell line growth inhibition, 48 h

Asked: Look up TGI for this compound: O=c1cc(C(F)(F)F)c2cc3c(cc2o1)NCCC3
Given back: > 100 µM

Dear colleague, could you send me TGI for each of the items below? Thanks.
1. Cc1ccc(C(=O)NN=C(/N=N/c2cccc(C)c2)c2ccc(N(C)C)cc2)cc1
2. COc1ccc(/C=N/N=C(\N)NO)c(OC)c1OC
3. CCOP(=O)(OCC)C(NC(c1ccccc1)c1ccccc1)c1ccccc1 (centres undefined)

Given back:
1: > 100 µM; 2: > 100 µM; 3: 3.47 µM

###

# System: UO-31 renal
# ASSAY_NOTES: NCI tumour cell line growth inhibition, 48 h
READOUT_KIND: TGI

Guide cases for TGI, answers given:
Asked: I'd like to know its TGI. The compound in question is CCOC(=O)NC(OCc1ccccc1)(C(=O)OC)C(F)(F)F (stereo unspecified)
Given back: > 100 µM

Asked: Find the recorded TGI belonging to N#C[C@H]1C(=O)C(c2nc3ccccc3[nH]2)S[C@H]1c1ccccc1 (stereo partly specified) and report it.
Given back: 78.8 µM

Asked: Item under review: O=c1cc(C(F)(F)F)c2cc3c(cc2o1)NCCC3 . Reported TGI?
Given back: > 100 µM

Asked: Param item = CCCCNC(=S)Nc1nc(C(=O)NNC(=S)NCc2ccccc2)cs1 ; retrieve measured TGI.
Given back: > 100 µM

Asked: I'd like to know its TGI. The compound in question is N#CC(NNC(=O)c1ccccc1O)c1ccc(O)cc1 (stereo unspecified)
Given back: 11.9 µM

New cases:
Asked: Record request: TGI value, item COC(C/C=C\C=C\CC/C=C/CC(C)/C=C/C(=C\C(=O)O)CC(=O)O)/C(C)=C\C=C(/C)C(=O)O (stereo unspecified)
Given back: > 100 µM
